system: Caco-2; experiment: drug sensitivity score (DSS) for viability; higher = more toxic; extreme values may be limits of the assay; settings: 72 h
Could you label it 1 if measured drug sensitivity score is 0.2 or higher, and 0 otherwise?

Does the compound OC[C@H]1O[C@@H](n2cnc3c(NC4CCCC4)ncnc32)[C@H](O)[C@@H]1O have recorded drug sensitivity score that is 0.2 or more?
0

Does the compound CC(C)COC(=O)c1ccc(N)cc1 have recorded drug sensitivity score that is 0.2 or more?
0

Does the compound NCC(CS(=O)(=O)O)c1ccc(Cl)cc1 (configuration not stated) have recorded drug sensitivity score that is 0.2 or more?
1

Does the compound CCCN(C/C=C/I)[C@H]1CCc2ccc(O)cc2C1 [7-hydroxy-PIPAT] have recorded drug sensitivity score that is 0.2 or more?
0

Does the compound CCO[C@@H](Cc1ccc(OCCn2c(C)ccc2-c2ccc(SC)cc2)cc1)C(=O)O have recorded drug sensitivity score that is 0.2 or more?
0

Does the compound O=C(O)c1cc(/N=N/c2ccc(O)c(C(=O)O)c2)ccc1O have recorded drug sensitivity score that is 0.2 or more?
0

Does the compound Oc1c(I)cc(I)c(O)c1I have recorded drug sensitivity score that is 0.2 or more?
0

Does the compound C[C@@H]1CC[C@H]2C(C)(C)[C@H]3C[C@@]12CC[C@@]3(C)O have recorded drug sensitivity score that is 0.2 or more?
0

Does the compound COC(=O)[C@@H]1C[C@H](OC(C)=O)C(=O)[C@H]2[C@@]1(C)CC[C@H]1C(=O)O[C@H](c3ccoc3)C[C@]21C have recorded drug sensitivity score that is 0.2 or more?
0

Does the compound Cn1nnc(-c2ccc(-c3ccc(N4C[C@H](CO)OC4=O)cc3F)cn2)n1 have recorded drug sensitivity score that is 0.2 or more?
1

Does the compound C/C(=N\Nc1nnc2c(n1)[nH]c1c(C)cccc12)c1ccccn1 have recorded drug sensitivity score that is 0.2 or more?
1

Does the compound Cn1ncc(Cl)c1-c1cc(C(=O)N[C@H](CN)Cc2cccc(F)c2)sc1Cl have recorded drug sensitivity score that is 0.2 or more?
0

Does the compound C[n+]1cc2c3c(ccc2c2ccc4cc5c(cc4c21)OCO5)OCO3 [sanguinarium-chloride] have recorded drug sensitivity score that is 0.2 or more?
1

Does the compound c1ccc2nc(C3=NCCN3)cnc2c1 have recorded drug sensitivity score that is 0.2 or more?
0

Does the compound COc1ccc(NS(=O)(=O)c2sc3ccc(Cl)cc3c2C)cc1N1CCNCC1 have recorded drug sensitivity score that is 0.2 or more?
0

Does the compound Cn1cccc1/C=C1\C(=O)NC(=O)c2ccccc21 have recorded drug sensitivity score that is 0.2 or more?
1

Does the compound C/C=C/C[C@@H](C)C(=O)[C@H]1C(=O)N[C@@H](C(C)C)C(=O)N(C)CC(=O)N(C)[C@@H](CC(C)C)C(=O)N[C@@H](C(C)C)C(=O)N(C)[C@@H](CC(C)C)C(=O)N[C@@H](C)C(=O)N[C@H](C)C(=O)N(C)[C@@H](CC(C)C)C(=O)N(C)[C@@H](CC(C)C)C(=O)N(C)[C@@H](C(C)C)C(=O)N1C have recorded drug sensitivity score that is 0.2 or more?
1

Does the compound Cc1nn(-c2ccccc2)c(C)c1/C=N/N1CCN(Cc2ccccc2)CC1 have recorded drug sensitivity score that is 0.2 or more?
0

Does the compound NS(=O)(=O)NCc1csc2ccccc12 have recorded drug sensitivity score that is 0.2 or more?
0

Does the compound CS(=O)(=O)c1ccc(Cn2c3c(c4cc(F)cc(F)c42)CCCC3CC(=O)O)cc1 (configuration not stated) have recorded drug sensitivity score that is 0.2 or more?
0

Does the compound C[C@@H]1CC(=O)c2c(ccc3c2C(=O)c2cccc(O)c2C3=O)C1 have recorded drug sensitivity score that is 0.2 or more?
0

Does the compound CC(=O)SCCC(=O)N1[C@H](C)CCC[C@@H]1C(=O)O have recorded drug sensitivity score that is 0.2 or more?
0

Does the compound O=C1NCCNC1c1cccs1 (configuration not stated) have recorded drug sensitivity score that is 0.2 or more?
0

Does the compound COc1cc(/C=C/c2ccc(OC)cc2OC)cc(OC)c1 have recorded drug sensitivity score that is 0.2 or more?
1

Does the compound CONC(=N)c1ccc(-c2ccc(-c3ccc(C(=N)NOC)cc3)o2)cc1 have recorded drug sensitivity score that is 0.2 or more?
0

Does the compound C1CCC(C(CC2CCCCN2)C2CCCCC2)CC1 (configuration not stated) have recorded drug sensitivity score that is 0.2 or more?
1

Does the compound COc1ccc(-c2coc3cc(O)ccc3c2=O)cc1 have recorded drug sensitivity score that is 0.2 or more?
0

Does the compound Cc1ccc(-c2c(-c3nn(C)c4ncnc(N5CC[C@H](N6CCCCC6)C5)c34)cnn2C)cc1 have recorded drug sensitivity score that is 0.2 or more?
0

Does the compound CCCN(CC1CC1)c1nc(C)nc(Nc2c(Cl)cc(Cl)cc2Cl)c1Cl have recorded drug sensitivity score that is 0.2 or more?
0

Does the compound COC(=O)c1ccccc1NC(=O)c1ccc(F)cc1 [EXO-1] have recorded drug sensitivity score that is 0.2 or more?
0

Does the compound Cc1n[nH]c2ccc(-c3cncc(OC[C@@H](N)Cc4ccccc4)c3)cc12 have recorded drug sensitivity score that is 0.2 or more?
1

Does the compound Cc1cc(CC(C)CC(C)(C)C)n(O)c(=O)c1 (configuration not stated) have recorded drug sensitivity score that is 0.2 or more?
1

Does the compound COCCOC(=O)C1=C(C)NC(C)=C(C(=O)OC/C=C/c2ccccc2)C1c1cccc([N+](=O)[O-])c1 (configuration not stated) have recorded drug sensitivity score that is 0.2 or more?
1

Does the compound Nc1c(-c2cccc(C(F)(F)F)c2)nsc1C(=O)O have recorded drug sensitivity score that is 0.2 or more?
0

Does the compound CC(=O)Nc1cccc2c1c(Sc1ccc(Cl)cc1)c(C)n2CC(=O)O have recorded drug sensitivity score that is 0.2 or more?
0

Does the compound O=c1cccc2n1C[C@@H]1CNC[C@H]2C1 have recorded drug sensitivity score that is 0.2 or more?
0

* * *

Provide the recorded drug-induced phospholipidosis for the entries that follow.
system: A549-ACE2; assay: drug-induced phospholipidosis relative to tamoxifen; higher = more phospholipidosis; details: 0.3 µM; 24 h
A number alone suffices; assume %.

Note to self: drug-induced phospholipidosis recorded for CC[C@@]1([C@H]2O[C@H]([C@H]3O[C@@](O)(CO)[C@H](C)C[C@@H]3C)C[C@H]2C)CC[C@H]([C@@]2(C)CC[C@]3(C[C@H](O)[C@@H](C)[C@@H]([C@H](C)[C@H](OC)[C@@H](C)C(=O)O)O3)O2)O1 [MONENSIN SODIUM] was -1.18

Note to self: drug-induced phospholipidosis recorded for CCN(CC)CC1CCN(c2ncc3ncnc(Nc4ccc(F)c(Cl)c4)c3n2)CC1 was 2.83

Note to self: drug-induced phospholipidosis recorded for CN1C2C=C(c3sccc3Br)CC1CC2 (centres undefined) was 1.11

Note to self: drug-induced phospholipidosis recorded for CN1CCN(CCCN2c3ccccc3Sc3ccc(Cl)cc32)CC1 was 1.08

* * *

tested on: Vero E6; test: cell viability relative to DMSO; higher = less toxic; conditions: 72 h; 100 nM
Provide the recorded cell viability for the entries that follow.
A number alone suffices; assume %.

Note to self: cell viability recorded for Cc1ccc(C(=O)Nc2cccc(C(F)(F)F)c2)cc1Nc1nc(-c2cccnc2)nc2c1cnn2C was 98.1

Note to self: cell viability recorded for CN(CCOc1ccc(CC2SC(=O)NC2=O)cc1)c1ccccn1 (configuration not stated) was 88.3

Note to self: cell viability recorded for O=S(=O)(O)CCSSCCS(=O)(=O)O was 104

Note to self: cell viability recorded for COc1cn(-c2ccc(-n3cccn3)cc2F)nc(-c2ccnn2-c2ccccc2)c1=O was 103

Note to self: cell viability recorded for Cc1cc(CC(C)CC(C)(C)C)n(O)c(=O)c1 (configuration not stated) was 104

Note to self: cell viability recorded for CCCCCCNC(=O)n1cc(F)c(=O)[nH]c1=O was 102

Note to self: cell viability recorded for Cc1ccc([N+](=O)[O-])cc1S(=O)(=O)N(C)C was 95.6

* * *

tested on: HepG2; test: cell viability relative to DMSO; higher = less toxic; settings: 72 h; 10000 nM
Provide the recorded cell viability for the entries that follow.
A number alone suffices; assume %.

Note to self: cell viability recorded for O=C(NC1CCNCC1)[C@@H]1CC[C@@H]2CN1C(=O)N2OS(=O)(=O)O was 95.3

Note to self: cell viability recorded for CN(C(=O)/C=C/c1ccoc1)[C@@H]1CC[C@@]2(O)[C@H]3Cc4ccc(O)c5c4[C@@]2(CCN3CC2CC2)[C@H]1O5 was 102

Note to self: cell viability recorded for COc1cc(/C=C(\C#N)C(N)=O)cc(CSc2nc3ccccc3s2)c1O was 108

Note to self: cell viability recorded for CC(C)C(=O)Nc1ccc([N+](=O)[O-])c(C(F)(F)F)c1 [flutamide] was 90.7

Note to self: cell viability recorded for O=C(O)CCC(=O)C(=O)O was 105

Note to self: cell viability recorded for c1ccc2nc(C3=NCCN3)cnc2c1 was 101

Note to self: cell viability recorded for CCOC(=O)Nc1ccc2c(c1)N(C(=O)CCN(CC)CC)c1ccccc1S2 was 104

Note to self: cell viability recorded for O=C1c2c(O)cc(O)cc2O[C@H](c2cc(O)c(O)c(O)c2)[C@H]1O [dihydromyricetin] was 103

Note to self: cell viability recorded for Cc1cc(C)cc(C(=O)NOCCCCCC(=O)NO)c1 was 0.3

Note to self: cell viability recorded for COC(=O)N[C@H](C(=O)N1CCC[C@H]1c1nc(-c2ccc3c(c2)O[C@@H](c2ccccc2)n2c-3cc3cc(-c4c[nH]c([C@@H]5CCCN5C(=O)[C@@H](NC(=O)OC)C(C)C)n4)ccc32)c[nH]1)C(C)C was 96.8

Note to self: cell viability recorded for C/C(=N\Nc1nnc2c(n1)[nH]c1c(C)cccc12)c1ccccn1 was 23.6

Note to self: cell viability recorded for CC(C)[C@H](CO)Nc1nc(Nc2cccc(Cl)c2)c2ncn(C(C)C)c2n1 was 87.2

Note to self: cell viability recorded for OC(c1ccccc1)C1CCN(CCc2ccccc2)CC1 (stereo not drawn) was 114

Note to self: cell viability recorded for N=C(N)NCCC[C@@H](NC(=O)[C@@H]1CCCN1C(=O)[C@@H]1CSSCCC(=O)N[C@@H](Cc2ccc(O)cc2)C(=O)N[C@@H](Cc2ccccc2)C(=O)N[C@@H](CCC(N)=O)C(=O)N[C@@H](CC(N)=O)C(=O)N1)C(=O)NCC(N)=O [desmopressin-acetate] was 106

Note to self: cell viability recorded for CC(=O)Nc1cccc2c1c(Sc1ccc(Cl)cc1)c(C)n2CC(=O)O was 97.9

Note to self: cell viability recorded for COc1ccc2c(c1)c(CC(=O)O)c(C)n2C(=O)c1ccc(Cl)cc1 was 95

Note to self: cell viability recorded for O=C(CNC(=O)c1ccc(Cl)cc1)NO was 95.8

Note to self: cell viability recorded for O=C1NCCNC1c1cccs1 (stereo not drawn) was 92.3

Note to self: cell viability recorded for Nc1ncnc2c1ncn2[C@@H]1O[C@@H]2COP(=O)(O)O[C@H]2[C@H]1O was 92.2

Note to self: cell viability recorded for O=c1cc(-c2ccc(O)cc2)oc2cc(O)cc(O)c12 was 94

Note to self: cell viability recorded for COC(=O)c1ccccc1NC(=O)c1ccc(F)cc1 [EXO-1] was 111

Note to self: cell viability recorded for CC#CC(=O)N1CCC[C@H]1c1nc(-c2ccc(C(=O)Nc3ccccn3)cc2)c2c(N)nccn12 was 102

Note to self: cell viability recorded for O=C(O)c1cc(O)c2ccc(Cl)cc2n1 was 97
